Provenance of the data: patent US20260115332A1

Target: recombinant human FAPα (Homo sapiens)
Sequence (Q12884 26-760 limits assumed): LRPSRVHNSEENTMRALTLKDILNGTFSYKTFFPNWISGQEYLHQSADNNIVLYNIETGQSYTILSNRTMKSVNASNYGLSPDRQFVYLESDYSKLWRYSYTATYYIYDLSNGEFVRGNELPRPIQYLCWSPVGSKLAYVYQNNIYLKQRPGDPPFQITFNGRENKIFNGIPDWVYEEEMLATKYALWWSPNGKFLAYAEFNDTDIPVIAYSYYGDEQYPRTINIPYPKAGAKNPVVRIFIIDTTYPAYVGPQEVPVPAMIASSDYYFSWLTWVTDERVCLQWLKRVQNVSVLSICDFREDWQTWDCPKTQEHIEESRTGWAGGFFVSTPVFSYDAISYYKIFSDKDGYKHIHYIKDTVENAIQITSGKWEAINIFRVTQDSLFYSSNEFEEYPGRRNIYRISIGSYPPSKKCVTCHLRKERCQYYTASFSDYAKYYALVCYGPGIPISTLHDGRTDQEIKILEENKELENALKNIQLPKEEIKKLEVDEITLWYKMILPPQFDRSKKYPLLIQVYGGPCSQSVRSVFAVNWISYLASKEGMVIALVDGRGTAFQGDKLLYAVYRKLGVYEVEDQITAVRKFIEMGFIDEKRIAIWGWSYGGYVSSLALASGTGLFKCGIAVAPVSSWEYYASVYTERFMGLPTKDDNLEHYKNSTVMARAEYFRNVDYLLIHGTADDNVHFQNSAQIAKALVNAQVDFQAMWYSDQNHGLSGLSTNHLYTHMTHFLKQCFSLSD
Experiment: Multiplex substrate profiling by mass spectrometry (MSP-MS)
Type: biochemical
Details: top P4-P4′ peptides cleaved by human FAP alpha
Where no end group is shown, it is not given here.
What # of cleavages on MS was measured for each of the following?
Please respond with just the number, no unit label.

Input line: Field request: # of cleavages on MS | item: HQGPFWML (also: FRET labels) [tested as 8 mer FRET peptide]
Output line: 30

Input line: Next sequence up: `XXGPKLTY`
Output line: 28

Input line: Can you check `XXMPEEVA` next?
Output line: 17

Input line: Same question for `XXFPNMWS` please.
Output line: 23

Input line: Also check `XXWPMGMY`
Output line: 26

Input line: Field entry: HIGPTAAY (also: FRET fluorophore/quencher labels) [tested as 8 mer FRET peptide]
Output line: 43

Input line: Same for `YHGPLAHX`
Output line: 98

Input line: Quick one: `XXIPTNIR`
Output line: 41

Input line: Let us now turn to HYGPTVNK (also: FRET labels) [tested as 8 mer FRET peptide]
Output line: 28

Input line: Let us now turn to `XSGPDYQK`
Output line: 14

Input line: Can you check `GMGPFHIV` next?
Output line: 12

Input line: # iterate: `XXGSQVFS`
Output line: 21

Input line: `XXIARQPW` , same question.
Output line: 14

Input line: Field entry: `XXHPTKSF`
Output line: 16
